Note to self: these molecules have pIC50 reported for Serine/threonine-protein kinase mTOR (Homo sapiens, UniProt P42345) in various publications.
Give bare numbers, as −log10 of the molar value.

Below are worked cases with known answers.
CC(F)(F)CN1C(=O)[C@]2(C)COCCN2c2nc(-c3ccc(NC(=O)NC4CC4)cc3)ncc21	7.90
CN1CCC(NC(=O)c2ccc(-c3ccc(-n4c(=O)ccc5cnc6ccc(-c7cnc8ccccc8c7)cc6c54)cc3C(F)(F)F)cc2)CC1	8.52
COc1ncc(-c2cc3c(-c4ccncc4)ncnc3s2)cc1NS(=O)(=O)c1ccc(C#N)cc1	6.44
N#Cc1cccc(Cn2cc(/C=N/Nc3nc(N4CCOCC4)nc(N4CCOCC4)n3)c3ccccc32)c1	4.78
Nc1nc2cc(-c3nn(CCCC(=O)OCCCCCO[N+](=O)[O-])c4ncnc(N)c34)ccc2o1	7.90
CCN(/C=C1/C(=O)O[C@H](COC)[C@@]2(C)C1=C(O)C(=O)C1=C2[C@H](OC(C)=O)C[C@]2(C)[C@@H](O)CC[C@@H]12)CC	4.85
COc1ncc2cc1NS(=O)(=O)c1cccc(c1)C(=O)NC[C@@H]1CN(CCO1)c1ncnc3c1SC2=C3C	5.69
COC(=O)N1CCN(Cc2cnc(Nc3ccc(OC)nc3)c(-c3nc(C)nc(N)n3)c2)CC1	5.43
O=C(Nc1ccc(-c2nc(N3CCOCC3)nc(N3CCOCC3)n2)cc1)Nc1ccc(Cl)c(-c2cccnc2)c1	6.70
O=C(c1ccc2nc(Nc3ccc(-c4nc(N5CCOCC5)nc(N5CCOCC5)n4)cc3)[nH]c2c1)N1CCOCC1	4.89

Provide the reported pIC50 of each entry below, same order.
1. Nc1nc2cc(-c3nn(CCCC(=O)OCCCCOc4no[n+]([O-])c4S(=O)(=O)c4ccccc4)c4ncnc(N)c34)ccc2o1
2. COc1ccc(-c2ccc3c(N4CCOC[C@@H]4C)nc(C(C)C)nc3n2)cc1CO
3. COc1ncc2cc1NS(=O)(=O)c1cccc(c1)C(=O)NCc1cncc(c1)-c1ncnc3c1SC2=C3C

8.17
8.00
6.76
